Data provenance is patent US7071210B2.

# TEST_DETAILS: Aqueous solubility
# Type: physicochemical
# DETAILS: aqueous environments
PROPERTY_MEASURED: solubility

Request: // query solubility value for entry CCOC(=O)N1c2ccc(C(F)(F)F)cc2[C@@H](N(Cc2cc(C(F)(F)F)cc(C(F)(F)F)c2)C(=O)OC)C[C@H]1CC
Response: < 0.04 µg/mL
